Recorded values, source ChEMBL document CHEMBL4184265.

method notes: Cytotoxicity against human HuH7 cells after 24 hrs
Type: cell-based, Huh-7
value type: CC50 at 24 h

[
  {
    "smiles data": "CNC(=O)c1c(-c2ccc(F)cc2)oc2cc3c(cc12)[C@H](C)O[C@H](CS(C)(=O)=O)CN3S(C)(=O)=O",
    "value type": "CC50 at 24 h",
    "result": "> 10 µM"
  },
  {
    "smiles data": "CNC(=O)c1c(-c2ccc(F)cc2)oc2cc3c(cc12)[C@H](C)O[C@H](CO)CN3S(C)(=O)=O",
    "value type": "CC50 at 24 h",
    "result": "> 3 µM"
  }
]
